Record type: pKi measurement. Applies to: Urokinase-type plasminogen activator (Homo sapiens, UniProt P00749)
Lab note: report pKi as minus log10 of the concentration in molar units, number only.

CC(O)c1ccc2ccnc(N=C(N)N)c2c1 (stereo not given) = 6.19

Task: Indicate its recorded pKi; the compound in question is NC(N)=Nc1ncc(Cl)c2ccccc12
Result: 6.08

Task: Give a short answer stating reported pKi for COc1ccc(C(=O)O)cc1-c1ccc2c(Cl)cnc(N=C(N)N)c2c1 .
Result: 8.05

Task: Could you please provide reported pKi for NC(N)=Nc1ncc(Cl)c2ccc(-c3cccc(C(=O)O)c3)cc12 ? Thanks!
Result: 7.43

---

molecular target: UniProtKB P00750; assay: Inhibitory activity against human tissue plasminogen activator was evaluated using S-2444 as substrate and tissue plasminogen activator stimulator at 1 mM
Sequence (P00750 36-562 limits assumed): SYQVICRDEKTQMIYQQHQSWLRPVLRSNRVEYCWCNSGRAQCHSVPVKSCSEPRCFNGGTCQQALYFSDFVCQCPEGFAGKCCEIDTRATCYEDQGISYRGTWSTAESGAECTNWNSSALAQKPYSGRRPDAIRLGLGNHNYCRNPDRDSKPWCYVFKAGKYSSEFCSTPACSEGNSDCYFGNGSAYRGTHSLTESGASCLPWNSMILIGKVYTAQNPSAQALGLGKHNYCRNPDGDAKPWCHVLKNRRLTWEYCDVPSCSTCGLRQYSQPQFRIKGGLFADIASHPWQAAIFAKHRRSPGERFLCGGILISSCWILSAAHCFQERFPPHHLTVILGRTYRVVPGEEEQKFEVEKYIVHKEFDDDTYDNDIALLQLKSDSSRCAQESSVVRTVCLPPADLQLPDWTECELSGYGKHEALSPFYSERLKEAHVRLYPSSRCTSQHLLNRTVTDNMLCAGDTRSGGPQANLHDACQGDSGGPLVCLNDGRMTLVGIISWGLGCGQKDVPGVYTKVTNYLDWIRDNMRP
Each entry below lists one item and its recorded inhibition value.

See these solved cases before continuing.
COc1cccc2c(N=C(N)N)nccc12 = < 50%
N=C(N)Nc1nccc2ccc(-c3ccc4c(c3)OCO4)cc12 = 55%
N=C(N)Nc1nccc2cc(Br)ccc12 = < 50%

In the following, a different compound is considered.
Task: Consider the compound N=C(N)Nc1cc2ccccc2cn1 and give its recorded inhibition.
Result: < 50%

---

biological target: Plasminogen (Homo sapiens, UniProt P00747); experiment: Inhibition of human plasmin activity with chromozym-PL as substrate
Sequence (P00747 97-580 limits assumed): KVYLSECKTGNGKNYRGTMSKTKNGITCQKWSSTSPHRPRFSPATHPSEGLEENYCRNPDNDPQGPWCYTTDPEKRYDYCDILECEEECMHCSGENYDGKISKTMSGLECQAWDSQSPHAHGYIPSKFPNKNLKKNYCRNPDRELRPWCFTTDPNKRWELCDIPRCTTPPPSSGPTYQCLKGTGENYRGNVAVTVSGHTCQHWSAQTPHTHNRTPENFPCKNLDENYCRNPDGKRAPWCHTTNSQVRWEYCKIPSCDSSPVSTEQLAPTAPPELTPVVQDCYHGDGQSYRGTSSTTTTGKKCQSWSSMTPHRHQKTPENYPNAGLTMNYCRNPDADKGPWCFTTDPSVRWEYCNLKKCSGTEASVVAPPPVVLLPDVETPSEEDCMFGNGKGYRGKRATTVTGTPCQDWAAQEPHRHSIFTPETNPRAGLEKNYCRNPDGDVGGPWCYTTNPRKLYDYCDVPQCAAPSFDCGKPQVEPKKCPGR
Sequence (P00747 581-810 limits assumed): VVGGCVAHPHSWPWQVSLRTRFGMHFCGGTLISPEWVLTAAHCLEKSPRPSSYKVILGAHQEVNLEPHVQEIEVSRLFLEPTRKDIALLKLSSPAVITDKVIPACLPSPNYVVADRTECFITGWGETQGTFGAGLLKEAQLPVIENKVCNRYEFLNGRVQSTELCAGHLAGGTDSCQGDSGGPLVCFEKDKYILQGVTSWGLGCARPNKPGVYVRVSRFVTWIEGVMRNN
pKi: −log10 of the molar value.
Assign T to entries whose pKi meets or exceeds 5; assign F to the rest.

Reference set (5 entries):
COc1ccc(-c2ccc3c(Cl)cnc(N=C(N)N)c3c2)cc1 = T
NC(N)=Nc1nccc2ccc(-c3ccccc3)cc12 = F
NC(N)=Nc1nccc2c(-c3ccccc3)cccc12 = F
N=C(N)Nc1nccc2c(Br)cccc12 = F
N=C(N)Nc1ncc(Cl)c2ccc(-c3ccc4c(c3)OCO4)cc12 = T

Task: Identify whether the reported pKi of the following molecule is 5 or greater: NC(N)=Nc1nccc2cc(Br)ccc12
Result: F

Task: Does the molecule N#Cc1cccc(-c2ccc3c(Cl)cnc(N=C(N)N)c3c2)c1 have recorded pKi that is 5 or more?
Result: T

Task: In plain terms: is recorded pKi at least 5 for CC(O)c1ccc2ccnc(N=C(N)N)c2c1 (stereo not drawn) ?
Result: F

Task: Kindly determine if pKi recorded for COc1ccc(C(=O)O)cc1-c1ccc2c(Cl)cnc(N=C(N)N)c2c1 is above or exactly 5.
Result: T

Task: hey, is pKi for this one >= 5? COc1ccccc1-c1ccc2c(Cl)cnc(N=C(N)N)c2c1
Result: F

Task: Check this molecule for pKi at or above 5: NC(N)=Nc1nccc2ccc(Br)cc12
Result: F

---

biological target: Plasminogen (Homo sapiens, UniProt P00747); experiment: Inhibitory activity against human plasmin was evaluated using chromozym-PL as substrate at 100 mM
inhibition values for the molecules below.

The following molecules have reported results that may help.
COc1ccc2ccnc(N=C(N)N)c2c1 = < 50%
N=C(N)Nc1nccc2c(OCc3ccccc3)cccc12 = < 50%
N=C(N)Nc1nccc2ccc(C(=O)O)cc12 = < 50%
Cc1cnc(N=C(N)N)c2ccccc12 = < 50%
N=C(N)Nc1nccc2ccc(OCc3ccccc3)cc12 = < 50%

Here's the next entry for you.
Task: Given N=C(N)Nc1nccc2ccc(CO)cc12 , respond with its inhibition.
Result: 55%

---

Record type: Ki measurement. Applies to: Urokinase-type plasminogen activator (Homo sapiens)
The answer is to be given in nM; state only the numeric part.

Task: Output reported Ki of the molecule COc1ccc2ccnc(N=C(N)N)c2c1 on Urokinase-type plasminogen activator (Homo sapiens).
Result: 660

Task: Enter Ki (test system Urokinase-type plasminogen activator (Homo sapiens)) for N#Cc1ccc(-c2ccc3c(Cl)cnc(N=C(N)N)c3c2)cc1
Result: 490

Task: For Urokinase-type plasminogen activator (Homo sapiens), give the measured Ki of the entry N=C(N)Nc1ncc(Cl)c2ccc(-c3ccc4c(c3)OCO4)cc12
Result: 100

Task: Output reported Ki of the molecule NC(N)=Nc1ccc2ccccc2n1 on Urokinase-type plasminogen activator (Homo sapiens).
Result: 209000

Task: # lookup: Urokinase-type plasminogen activator (Homo sapiens) Ki, key = NC(N)=Nc1nccc2ccccc12
Result: 1920

Task: State, for Urokinase-type plasminogen activator (Homo sapiens), measured Ki of the molecule listed here: N=C(N)Nc1nccc2ccc(CO)cc12
Result: 1300

Task: Lab note: Urokinase-type plasminogen activator (Homo sapiens) assay, enter Ki for Cc1ccc(-c2ccc3c(Cl)cnc(N=C(N)N)c3c2)cc1 here
Result: 130

---

target: Plasminogen (Homo sapiens); experiment: Inhibitory activity against human plasmin was evaluated using chromozym-PL as substrate at 1 mM
MEASUREMENT KIND: Ki (µM)
Give your result in µM as a bare value.

Task: Give me measured Ki, please, for this compound: NC(N)=Nc1nccc2ccccc12
Result: 68
